I'd be grateful if you could share measured growth for these entries.
System: SNB-75 CNS
Assay: NCI-60 one-dose screen, 48 h (100 = growth as untreated, 0 = no growth, -100 = all killed)
Conditions: 10 µM unless noted
Description: Growth inhibition of the SNB-75 human tumor cell line is measured as a screen for anti-cancer activity. Cells are grown in 96 well plates and exposed to the test compound for 48 hours. Compounds are tested at a single concentration, which is 10^-5 M for most compounds. The reported endpoint is percent growth (GI% or GIPRCNT), where numbers from 0 - 100% represent growth inhibition, and numbers from -100% - 0 represent cell death. For example, a value of 40 represents 60% growth inhibition. […]
This is part of a sample that, as a whole, favours compounds with a hit. Of some 83,000 tested, about 20% had one in any assay.
Give bare numbers, in %.

| COMPOUND | growth / % |
| --- | --- |
| CCCCCCC(C)CC1=C(O)c2ccccc2C(=O)C1=O (stereo not drawn) | 61.6 |
| CCNC1=CC(=O)c2ncccc2C1=O | -91 |
| O=c1[nH]c(=O)c2[nH]c(=O)[nH]c2[nH]1 | 89.8 |
| Cc1c(Cl)c(C)c(Cc2c(C)c(Cl)c(C)c(Cl)c2O)c(O)c1Cl | 25 |

Working through the 7 compounds below one at a time, give growth for each.
1. CCN(C)c1ccccc1
2. Nc1ccccc1SC1CC(=O)N(c2ccc(I)cc2)C1=O (stereo not drawn)
3. CCOP(=O)(OCC)/C(C#N)=C/c1c(C)[nH]c2ccccc12
4. CC(C)(C)OC(=O)NCCc1ccc(N)cc1
5. S=c1nn[nH]n1C1CCCCC1
6. CCNCc1ccccc1
7. O=[N+]([O-])c1ccc(NC(c2ccccc2)c2ccc3cccnc3c2O)cc1 (stereo not drawn)

Response line:
[79.2, 79.8, 49.8, 87.6, 95.2, 102, 47.3]

For each of the compounds below, state growth.
1. Clc1ccc2c(c1)N(C1CCCN(Cc3ccccc3)C1)c1ccccc1S2 (stereo not drawn)
2. COc1ccc([N+](=O)[O-])cc1OC

Response line:
27.6
98

###

Tested on: UACC-257 melanoma
Assay: NCI-60 one-dose screen, 48 h
Conditions: 10 µM unless noted
This is part of a sample that, as a whole, favours compounds with a hit. Of some 83,000 tested, about 20% had one in any assay. Calls of active or inactive are those of the source. The calls were made as follows: active = growth percent below 10; inactive = the rest.
Outcomes you can answer with include only these: label 1 for active, label 0 for inactive

Please review the following examples before continuing.
| MOLECULE | ASSAYED_SYSTEM | CAT |
| --- | --- | --- |
| CCN(C)c1ccccc1 | UACC-257 melanoma | label 0 |
| Nc1ccc2ccc(NS(=O)(=O)N3CCCCC3)cc2c1 | UACC-257 melanoma | label 0 |
| CC(=O)Nc1ccc2oc(=O)ccc2c1 | UACC-257 melanoma | label 0 |
| CCOP(=O)(OCC)/C(C#N)=C/c1c(C)[nH]c2ccccc12 | UACC-257 melanoma | label 0 |
| CC1(C)CC(=O)NC1=O | UACC-257 melanoma | label 0 |
| CS(=O)(=O)c1nsc(N)n1 | UACC-257 melanoma | label 0 |
| COC(=O)c1nc(=S)[nH]c(C(=O)OC)c1C(=O)c1ccc(OC)cc1 | UACC-257 melanoma | label 0 |
| Nc1ccccc1SC1CC(=O)N(c2ccc(I)cc2)C1=O (centres undefined) | UACC-257 melanoma | label 0 |
| CCCCCCC(C)CC1=C(O)c2ccccc2C(=O)C1=O (centres undefined) | UACC-257 melanoma | label 0 |
| N#CC(=S)Nc1ccc(Cl)c(Cl)c1 | UACC-257 melanoma | label 1 |

Prompt line: Look up the recorded call for CC(O)CCNC(c1ccccc1)C(O)c1ccccc1 (centres undefined) in this test.
Response line: label 0

Prompt line: Recorded test call requested for `Cc1c(O)nc(N)[nH]c1=O`
Response line: label 0

Prompt line: Identify the outcome logged in this assay for the molecule shown: `N=c1sc2ccccc2n1CC(=O)O`
Response line: label 0

Prompt line: Kindly provide the recorded test outcome for the following molecule: `Cc1onc(-c2c(F)cccc2Cl)c1-c1ncc(-c2ccc(Cl)cc2)o1`
Response line: label 0

###

System: MALME-3M melanoma
Experiment: NCI-60 one-dose screen, 48 h (100 = growth as untreated, 0 = no growth, -100 = all killed)
Conditions: 10 µM unless noted
About 83,000 compounds went through this panel and 20% of them were active in at least one assay; those are over-represented in the sample as a whole. Calls of active or inactive are those of the source. How the source made its calls: active means growth percent below 10; inactive means the rest.
MEASUREMENT_KIND: growth

As a guide, the following entries are already answered.
| COMPOUND | growth |
| --- | --- |
| COc1ccc(CCl)c(C)c1OC | 84.9% (inactive) |
| Nc1ccccc1SC1CC(=O)N(c2ccc(I)cc2)C1=O (stereo not drawn) | 75.6% (inactive) |
| COc1ccc(CCO)cc1 | 92.1% (inactive) |
| Nc1c(Cl)cc2c(c1Br)C(=O)c1ccccc1C2=O | 132% (inactive) |
| OCCCc1ccccc1 | 75.8% (inactive) |
| O=C1c2cccnc2-c2ncccc21 | 103% [100 µM] (inactive) |

// each compound listed below needs its growth
1. CC(=O)c1cccc(OC(=O)c2ccccc2)c1
2. Cc1cc(Cl)nc(Nc2ccccc2)n1

Response line:
["110% (inactive)", "101% (inactive)"]

###

System: UO-31 renal
Assay: NCI-60 one-dose screen, 48 h (100 = growth as untreated, 0 = no growth, -100 = all killed)
Conditions: 10 µM unless noted
Compounds without any hit were thinned out: in the full panel of roughly 83,000, 20% have a hit.
Kindly supply the reported growth values for the records listed here.
One number for each entry, in %.

| COMPOUND | growth / % |
| --- | --- |
| CCN(CC)C(CC(=O)c1ccccc1)C(=O)c1ccccc1 (configuration not stated) | 84.1 |
| COc1ccc2nccc(Cl)c2c1 | 91.5 |
| COc1ccc(CCN=Cc2ccc(Cl)cc2)cc1OC | 83.7 |
| Clc1ccc2c(c1)N(C1CCCN(Cc3ccccc3)C1)c1ccccc1S2 (configuration not stated) | 66.7 |
| Cc1nc(Nc2ccc(Cl)cc2)c2cnn(-c3ccccc3)c2n1 | 94.6 |

For every listed record, write down its growth.
1. O=C(O)c1ccc2c3ccc(C(=O)O)c4c(C(=O)O)ccc(c5ccc(C(=O)O)c1c25)c43
2. CC(C)(C)OC(=O)CC1(O)CCCCC1
3. CC1(C)CC(=O)NC1=O
4. Cc1cc(-c2ccc(N=Nc3c(C)nn(-c4ccc(S(=O)(=O)O)cc4)c3O)c(C)c2)ccc1N=Nc1ccc(O)c(C(=O)O)c1

Response line:
[85.8, 101, 87.1, 69.1]

###

Task for the reader: assign each of the following compounds its reported growth.
Test system: HCC-2998 colon
Assay: NCI-60 one-dose screen, 48 h (100 = growth as untreated, 0 = no growth, -100 = all killed)
Conditions: 10 µM unless noted
The panel holds about 83,000 compounds, 20% with a hit somewhere; the sample as a whole holds those more often.
Numbers only, in %.

| SMILES_DATA | MEASUREMENT_KIND | VALUE_MEASURED |
| --- | --- | --- |
| O=[N+]([O-])c1cccc2ccc(N/N=C/c3ccccc3O)nc12 | growth | 110 |

Could you report growth for every entry in the following list?
1. CCCCNC(=O)c1ccccc1C
2. CCn1c2ccc(N(C)C)cc2c2cc(N(C)C)ccc21
3. COc1ccc(CCN=Cc2ccc(Cl)cc2)cc1OC
4. O=C1c2ccccc2CN1c1ccccc1

Response line:
1: 88.3; 2: 99.2; 3: 105; 4: 128

###

Tested on: SK-OV-3 ovarian
Experiment: NCI-60 one-dose screen, 48 h
Conditions: 10 µM unless noted
This is part of a sample that, as a whole, favours compounds with a hit. Of some 83,000 tested, about 20% had one in any assay. The source made the active and inactive calls. The calls were made as follows: active = growth percent below 10; inactive = the rest.
Please state which outcome applies, choosing from 1 (yes) for active, 0 (no) for inactive

Look over these answered cases.
| MOLECULE | CAT |
| --- | --- |
| C(=N\OCCc1ccccc1)/c1ccccn1 | 0 (no) |
| COc1cc2oc3cc(=O)cc4oc(-c5ccccc5)cc(c2c2c1CCC(c1ccccc1)O2)c43 (stereo unspecified) | 0 (no) |
| C/C=C(/C(=O)NC(N)=O)C(C)C | 0 (no) |
| O=C1C=CC(n2cc(F)c(=O)[nH]c2=O)O1 (stereo unspecified) | 0 (no) |

Prompt line: Which outcome was entered for the molecule CCC(C)NC(=O)c1ccccc1C (stereo unspecified) in this test?
Response line: 0 (no)

Prompt line: Could you check what this test reported for O=[N+]([O-])c1ccc(NC(c2ccccc2)c2ccc3cccnc3c2O)cc1 (stereo unspecified) ?
Response line: 0 (no)

Prompt line: Given CN(C)CC(CN(C)C)C(O)c1ccccc1 (stereo unspecified) , state the outcome it received in this test.
Response line: 0 (no)

Numbers sourced from PubChem BioAssay (NCI).
